System: Escherichia coli
Experiment: Antibacterial activity against Escherichia coli TG1 pET28a plasmid encoded for APH(3')-3a after 12 to 18 hrs
Format: functional
Assay Endpoint: MIC (µg/mL)

NCC[C@H](O)C(=O)NC[C@H]1O[C@@H](O[C@@H]2[C@@H](O)[C@H](N)C[C@H](N)[C@H]2O[C@H]2O[C@H](CN)[C@@H](O)[C@H](O)[C@H]2N)[C@H](O)[C@@H]1O[C@H]1O[C@@H](CN)[C@@H](O)[C@H](O)[C@H]1N = 125
NC[C@@H]1O[C@H](O[C@H]2[C@@H](O)[C@H](O[C@@H]3[C@@H](O)[C@H](N)C[C@H](N)[C@H]3O[C@H]3O[C@H](CN)[C@@H](O)[C@H](O)[C@H]3N)O[C@@H]2CO)[C@H](N)[C@@H](O)[C@@H]1O = 64
NC[C@@H]1O[C@H](O[C@H]2[C@@H](O)[C@H](O[C@@H]3[C@@H](O)[C@H](N)C[C@H](N)[C@H]3O[C@H]3O[C@H](CN)[C@@H](O)[C@H](O)[C@H]3N)O[C@@H]2CNC(=O)[C@@H](N)CO)[C@H](N)[C@@H](O)[C@@H]1O = 32
NC[C@@H]1O[C@H](O[C@H]2[C@@H](O)[C@H](O[C@@H]3[C@@H](O)[C@H](N)C[C@H](N)[C@H]3O[C@H]3O[C@H](CN)[C@@H](O)[C@H](O)[C@H]3N)O[C@@H]2CNC(=O)[C@@H]2CCCN2)[C@H](N)[C@@H](O)[C@@H]1O = 64

====

Test system: Enterococcus
Experiment: Activity of Enterococcus APH(3')-3a
# Vmax listing for each entry below
Assay Endpoint: Vmax (µmol/min/mg)

NCCCC[C@H](N)C(=O)NC[C@H]1O[C@@H](O[C@@H]2[C@@H](O)[C@H](N)C[C@H](N)[C@H]2O[C@H]2O[C@H](CN)[C@@H](O)[C@H](O)[C@H]2N)[C@H](O)[C@@H]1O[C@H]1O[C@@H](CN)[C@@H](O)[C@H](O)[C@H]1N = 0.79
CNCc1cn(C[C@H]2O[C@@H](O[C@@H]3[C@@H](O)[C@H](N)C[C@H](N)[C@H]3O[C@H]3O[C@H](CN)[C@@H](O)[C@H](O)[C@H]3N)[C@H](O)[C@@H]2O[C@H]2O[C@@H](CN)[C@@H](O)[C@H](O)[C@H]2N)nn1 = 0.72
NCC[C@H](O)C(=O)NC[C@H]1O[C@@H](O[C@@H]2[C@@H](O)[C@H](N)C[C@H](N)[C@H]2O[C@H]2O[C@H](CN)[C@@H](O)[C@H](O)[C@H]2N)[C@H](O)[C@@H]1O[C@H]1O[C@@H](CN)[C@@H](O)[C@H](O)[C@H]1N = 0.93
NC[C@@H]1O[C@H](O[C@H]2[C@@H](O)[C@H](O[C@@H]3[C@@H](O)[C@H](N)C[C@H](N)[C@H]3O[C@H]3O[C@H](CN)[C@@H](O)[C@H](O)[C@H]3N)O[C@@H]2CNC(=O)[C@@H](N)Cc2c[nH]c3ccccc23)[C@H](N)[C@@H](O)[C@@H]1O = 0.57

====

Tested on: Enterococcus
Experiment: Activity of Enterococcus APH(3')-3a
# kcat listing for each entry below
Assay Endpoint: kcat

CN(C)Cc1cn(C[C@H]2O[C@@H](O[C@@H]3[C@@H](O)[C@H](N)C[C@H](N)[C@H]3O[C@H]3O[C@H](CN)[C@@H](O)[C@H](O)[C@H]3N)[C@H](O)[C@@H]2O[C@H]2O[C@@H](CN)[C@@H](O)[C@H](O)[C@H]2N)nn1 = 0.33 s⁻¹
NCc1cn(C[C@H]2O[C@@H](O[C@@H]3[C@@H](O)[C@H](N)C[C@H](N)[C@H]3O[C@H]3O[C@H](CN)[C@@H](O)[C@H](O)[C@H]3N)[C@H](O)[C@@H]2O[C@H]2O[C@@H](CN)[C@@H](O)[C@H](O)[C@H]2N)nn1 = 0.34 s⁻¹
NC[C@@H]1O[C@H](O[C@H]2[C@@H](O)[C@H](O[C@@H]3[C@@H](O)[C@H](N)C[C@H](N)[C@H]3O[C@H]3O[C@H](CN)[C@@H](O)[C@H](O)[C@H]3N)O[C@@H]2CNC(=O)[C@@H]2CCCN2)[C@H](N)[C@@H](O)[C@@H]1O = 0.32 s⁻¹
